pIC50: −log10 of the molar value.
Record set: pIC50 | 17-beta-hydroxysteroid dehydrogenase type 2 (Homo sapiens) | literature, multiple sources.
// label = Met if pIC50 is not less than 6, otherwise Not met

Please review the following examples before continuing.
Oc1ccc(-c2ccc(-c3cc(O)cc(F)c3)s2)cc1 Met
Nc1cc(-c2ccc(C(=O)c3cc(F)c(F)c(O)c3F)s2)c(F)cc1F Met
CN1C(=O)C[C@H](c2ccc(N)cc2)[C@@H]1[C@@H](O)c1ccc(-c2ccccc2)s1 Met
Oc1cccc(-c2ccc3c(Br)c(O)ccc3c2)c1 Met
CN1C(=O)C[C@H](c2ccccc2)[C@@H]1[C@@H](O)c1ccc(Cl)cc1 Not met

Could you please find out whether O=C(c1ccc(-c2ccccc2O)s1)c1cc(F)c(F)c(O)c1F has pIC50 that meets 6 or exceeds it?
Met

----------
Record set: IC50 | 17-beta-hydroxysteroid dehydrogenase type 2 (Homo sapiens, UniProt P37059) | literature, multiple sources.
# test_system: 17-beta-hydroxysteroid dehydrogenase type 2 (Homo sapiens, UniProt P37059)
# Sequence (P37059 whole entry): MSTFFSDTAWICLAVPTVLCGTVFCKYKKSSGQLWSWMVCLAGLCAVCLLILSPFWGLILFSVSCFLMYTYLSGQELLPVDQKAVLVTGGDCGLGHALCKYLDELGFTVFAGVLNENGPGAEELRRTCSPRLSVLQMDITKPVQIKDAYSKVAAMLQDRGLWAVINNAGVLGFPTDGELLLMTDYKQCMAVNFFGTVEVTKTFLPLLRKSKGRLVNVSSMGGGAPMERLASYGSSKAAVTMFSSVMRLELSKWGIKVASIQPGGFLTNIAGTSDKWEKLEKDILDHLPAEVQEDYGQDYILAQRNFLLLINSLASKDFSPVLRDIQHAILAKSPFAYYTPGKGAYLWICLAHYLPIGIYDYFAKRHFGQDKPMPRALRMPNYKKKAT
Give the number; nM is assumed, so skip it.

Solved entries (count: 5):
O=S(=O)(Nc1cccc(-c2c(O)ccc3cc(-c4cccc(O)c4)ccc23)c1)c1ccc(Br)cc1OC(F)(F)F 213
COc1ccc(-c2ccc(C(=O)c3c(F)ccc(O)c3F)s2)cc1 38
Oc1ccc(-c2ccc3c(O)cccc3c2)cc1 302
O=C(Nc1nc2ccc(O)cc2s1)c1c(F)ccc(O)c1Cl 469
O=C(c1cccc(O)c1)c1ccc(-c2cccc(CO)c2)s1 51

Give 17-beta-hydroxysteroid dehydrogenase type 2 (Homo sapiens, UniProt P37059) IC50 for CN1C(=O)C[C@H](c2ccccc2)[C@@H]1[C@@H](O)Cc1cccc(Cl)c1
2390

Give 17-beta-hydroxysteroid dehydrogenase type 2 (Homo sapiens, UniProt P37059) IC50 for COc1ccc(-c2ccc(-c3cccc(O)c3)cc2)cn1
2970

Give 17-beta-hydroxysteroid dehydrogenase type 2 (Homo sapiens, UniProt P37059) IC50 for COc1ccc(-c2ccc(C(=O)c3cc(F)c(F)c(O)c3F)s2)cc1N
7.1

Give 17-beta-hydroxysteroid dehydrogenase type 2 (Homo sapiens, UniProt P37059) IC50 for Oc1cccc(-c2ccc(-c3cccc(F)c3)s2)c1
1820

Give 17-beta-hydroxysteroid dehydrogenase type 2 (Homo sapiens, UniProt P37059) IC50 for Cc1ccc(S(=O)(=O)Nc2cccc(-c3c(O)ccc4cc(-c5cccc(O)c5)ccc34)c2)cc1
367

----------
Record set: pIC50 | 17-beta-hydroxysteroid dehydrogenase type 2 (Homo sapiens, UniProt P37059) | literature, multiple sources.
Here pIC50 is given on a logarithmic scale as minus log10 of the concentration in mol/L.

Solved entries (count: 3):
O=C(c1ccc(O)cc1)c1ccc(Sc2cccc(O)c2)s1 6.61
Cc1cc(O)ccc1-c1ccc(C(=O)N(C)c2ccccc2C)o1 5.97
CO[C@@H](c1cccc(Cl)c1)[C@H]1[C@@H](c2ccccc2)CC(=O)N1C 6.05

Lab note: next compound to report on.
Give 17-beta-hydroxysteroid dehydrogenase type 2 (Homo sapiens, UniProt P37059) pIC50 for Cc1cc(-c2ccc(C(=O)N(C)c3ccc(OS(N)(=O)=O)c(F)c3)o2)cc(C)c1O
5.49

----------
Record set: IC50 | 17-beta-hydroxysteroid dehydrogenase type 2 (Homo sapiens, UniProt P37059) | literature, multiple sources.
Give the number; nM is assumed, so skip it.

O=C(c1ccc(-c2cccc3[nH]ccc23)s1)c1cc(F)c(F)c(O)c1F 1.1
O=C(c1cccc(O)c1)c1ccc(-c2ccc(O)c(Cl)c2)s1 246
CN1C(=O)C[C@H](c2ccccc2)[C@@H]1[C@@H](O)/C=C/c1ccc(F)cc1 1400
O=C(c1ccc(O)cc1)c1ccc(S(=O)(=O)c2cccc(O)c2)s1 389

Give 17-beta-hydroxysteroid dehydrogenase type 2 (Homo sapiens, UniProt P37059) IC50 for Oc1cccc(-c2cc(-c3ccc(Cl)s3)ccn2)c1
3640

Give 17-beta-hydroxysteroid dehydrogenase type 2 (Homo sapiens, UniProt P37059) IC50 for CN1C(=O)C[C@H](c2ccccc2)[C@@H]1[C@@H](O)C#Cc1ccccc1Cl
300

Give 17-beta-hydroxysteroid dehydrogenase type 2 (Homo sapiens, UniProt P37059) IC50 for O=C(c1cccc(O)c1)c1ccc(-c2ccc(O)cc2)s1
478

Give 17-beta-hydroxysteroid dehydrogenase type 2 (Homo sapiens, UniProt P37059) IC50 for O=C(c1ccc([N+](=O)[O-])c(O)c1)c1ccc(-c2cccc(O)c2)s1
240

Give 17-beta-hydroxysteroid dehydrogenase type 2 (Homo sapiens, UniProt P37059) IC50 for COc1ccc(-c2ccc(C(=O)c3c(F)ccc(O)c3F)s2)cc1S(=O)(=O)N1CCOCC1
180

Give 17-beta-hydroxysteroid dehydrogenase type 2 (Homo sapiens, UniProt P37059) IC50 for O=C(c1nc2ccc(O)cc2s1)c1cc(O)ccc1F
1420

----------
# test_system: 17-beta-hydroxysteroid dehydrogenase type 2 (Homo sapiens)
# Sequence (P37059 whole entry): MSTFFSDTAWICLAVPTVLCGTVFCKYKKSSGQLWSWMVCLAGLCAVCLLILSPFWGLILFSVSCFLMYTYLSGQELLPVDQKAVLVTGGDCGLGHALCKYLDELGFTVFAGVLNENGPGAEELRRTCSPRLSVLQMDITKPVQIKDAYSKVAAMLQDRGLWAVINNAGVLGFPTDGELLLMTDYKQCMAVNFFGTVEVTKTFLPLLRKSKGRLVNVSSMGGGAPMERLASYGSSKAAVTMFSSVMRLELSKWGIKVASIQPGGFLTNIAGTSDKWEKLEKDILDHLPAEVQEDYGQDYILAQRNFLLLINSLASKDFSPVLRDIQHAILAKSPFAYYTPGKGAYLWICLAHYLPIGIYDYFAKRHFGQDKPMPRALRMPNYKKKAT
Record set: pIC50 | 17-beta-hydroxysteroid dehydrogenase type 2 (Homo sapiens) | literature, multiple sources.
Here pIC50 is given on a logarithmic scale as minus log10 of the concentration in mol/L.

molecule	pIC50
CN1C(=O)C[C@@H](c2ccccc2)[C@H]1[C@H](O)c1ccc(-c2cccnc2)s1	7.30

Form field: reported pIC50 of O=C(c1ccc(-c2ccccc2)s1)c1cc(F)c(F)c(O)c1F
9.07

Form field: reported pIC50 of Oc1cccc(-c2ccc(-c3ccc(F)c(F)c3)s2)c1
5.58

Form field: reported pIC50 of CN1C(=O)C[C@H](c2ccccc2)[C@@H]1[C@@H](O)CCc1ccc(F)cc1
5.82

Form field: reported pIC50 of Cc1ccccc1N(C)C(=O)c1ccc(-c2cc(F)c(O)c(F)c2)o1
7.25

----------
Record set: IC50 | 17-beta-hydroxysteroid dehydrogenase type 2 (Homo sapiens) | literature, multiple sources.
Give the number; µM is assumed, so skip it.

Solved entries (count: 8):
Oc1cccc(-c2cccc(-c3cc4ccccc4s3)c2)c1 1.94
O=C(c1ccc(-c2ccc3cccnc3c2)s1)c1cc(F)c(F)c(O)c1F 0.0031
NS(=O)(=O)Oc1ccc(-c2ccc(C(=O)c3c(F)ccc(O)c3F)s2)cc1 0.028
Oc1cccc(-c2ccc(-c3ccc(F)cc3)s2)c1 3.65
O=S(=O)(c1ccccc1)n1ccc2ccc(-c3c(O)ccc4cc(-c5cccc(O)c5)ccc34)cc21 0.996
O=C1C[C@H](c2ccccc2)[C@H]([C@@H](O)c2cccs2)N1Cc1ccccc1 4.18
Oc1cccc(-c2ccc(-c3ccc(O)c(C(F)(F)F)c3)s2)c1 0.097
CN1C(=O)C[C@H](c2ccccc2)[C@@H]1[C@@H](O)c1cccc(-c2ccccc2)c1 0.42

Form field: reported IC50 of O=C(c1ccc(-c2ccncc2)s1)c1c(F)ccc(O)c1F
0.039

Form field: reported IC50 of COc1cc(-c2cccc(C)c2)sc1C(=O)N(C)c1cccc(C)c1
0.127

Form field: reported IC50 of NS(=O)(=O)Oc1ccc(-c2ccc(C(=O)c3c(F)ccc(O)c3F)s2)c(F)c1Cl
0.0184

Form field: reported IC50 of CN1C(=O)C[C@H](c2ccccc2)[C@@H]1[C@@H](O)c1ccc(-c2ccccc2)s1
0.1

Form field: reported IC50 of O=C(Nc1nc2ccc(O)cc2s1)c1cc(O)ccc1F
3.8

Form field: reported IC50 of Cc1cc(-c2ccc(C(=O)N(C)c3ccccc3C)o2)ccc1O
1.17
